- test-system: Endothelin receptor, ET-A/ET-B (Homo sapiens) (UniProt P24530+P25101)
- Sequence (P24530 whole entry, looked up): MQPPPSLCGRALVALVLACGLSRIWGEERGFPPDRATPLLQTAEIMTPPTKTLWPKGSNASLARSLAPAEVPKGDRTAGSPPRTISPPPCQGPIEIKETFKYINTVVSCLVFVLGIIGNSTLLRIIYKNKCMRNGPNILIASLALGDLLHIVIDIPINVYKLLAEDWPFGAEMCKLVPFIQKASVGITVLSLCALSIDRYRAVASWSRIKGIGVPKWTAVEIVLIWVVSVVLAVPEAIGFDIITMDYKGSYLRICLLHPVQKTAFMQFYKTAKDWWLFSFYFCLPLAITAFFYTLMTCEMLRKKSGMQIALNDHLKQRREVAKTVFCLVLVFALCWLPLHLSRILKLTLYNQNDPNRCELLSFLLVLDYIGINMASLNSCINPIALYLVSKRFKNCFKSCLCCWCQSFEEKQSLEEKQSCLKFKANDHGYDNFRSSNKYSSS
- Sequence (P25101 whole entry, looked up): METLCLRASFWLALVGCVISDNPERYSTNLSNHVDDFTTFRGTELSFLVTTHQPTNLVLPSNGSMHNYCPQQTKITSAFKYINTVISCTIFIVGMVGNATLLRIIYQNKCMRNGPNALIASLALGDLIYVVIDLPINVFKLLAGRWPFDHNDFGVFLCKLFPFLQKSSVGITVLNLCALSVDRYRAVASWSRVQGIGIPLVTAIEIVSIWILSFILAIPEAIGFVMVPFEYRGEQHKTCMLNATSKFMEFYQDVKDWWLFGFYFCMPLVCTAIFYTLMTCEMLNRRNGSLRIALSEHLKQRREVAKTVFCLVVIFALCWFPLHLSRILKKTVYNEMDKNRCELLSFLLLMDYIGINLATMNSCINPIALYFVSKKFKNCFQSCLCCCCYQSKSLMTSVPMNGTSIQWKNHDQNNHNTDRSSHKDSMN
- test-summary: Ratio of binding affinity at Endothelin-A receptors compared to Endothelin-B receptors.
- Format: protein assay
# if measured Ratio < 60: fulfilled  # else: not fulfilled

Before answering, review these 3 worked examples.
molecule	category
CCOc1cc(C)ccc1S(=O)(=O)NC(=O)C(c1ccc2c(c1)OCO2)c1cn(C)c2cc(C(N)=O)ccc12 (stereo not given)	not fulfilled
COc1cc(C)ccc1S(=O)(=O)NC(=O)C(c1ccc2c(c1)OCO2)c1cn(C)c2cc(C(N)=O)ccc12 (stereo not given)	not fulfilled
Cn1cc(C(C(=O)NS(=O)(=O)c2ccccc2)c2ccc3c(c2)OCO3)c2ccc(C(N)=O)cc21 (stereo not given)	not fulfilled

Query string: Bench note: check whether Cn1cc(C(C(=O)NS(=O)(=O)c2ccccc2C(=O)O)c2ccc3c(c2)OCO3)c2ccc(C(N)=O)cc21 (stereo not given) shows Ratio below 60
Result string: not fulfilled

Query string: Below 60 on Ratio? Entry CC(C)c1ccc(S(=O)(=O)NC(=O)C(c2ccc3c(c2)OCO3)c2cn(C)c3cc(CO)ccc23)cc1 (stereo not given)
Result string: fulfilled

Query string: Input Cc1ccc(S(=O)(=O)NC(=O)C(c2ccc3c(c2)OCO3)c2cn(C)c3cc(C(N)=O)ccc23)cc1 (stereo not given) ; condition: Ratio strictly below 60. Does it hold?
Result string: not fulfilled

Query string: Strictly below 60: is that where Ratio of Cc1ccccc1S(=O)(=O)NC(=O)C(c1ccc2c(c1)OCO2)c1cn(C)c2cc(C(N)=O)ccc12 (stereo not given) sits?
Result string: not fulfilled

Query string: Does the reported Ratio of the following molecule sit strictly below 60? CCn1cc(C(C(=O)NS(=O)(=O)c2ccc(C(C)C)cc2)c2ccc3c(c2)OCO3)c2ccc(C(N)=O)cc21 (stereo not given)
Result string: fulfilled

Query string: is_below(Ratio, 60) for COc1ccccc1S(=O)(=O)NC(=O)C(c1ccc2c(c1)OCO2)c1cn(C)c2cc(C(N)=O)ccc12 (stereo not given) ?
Result string: not fulfilled

Query string: Identify whether the molecule Cn1cc(C(C(=O)NS(=O)(=O)c2ccc(C(F)(F)F)cc2)c2ccc3c(c2)OCO3)c2ccc(C(N)=O)cc21 (stereo not given) records Ratio below 60.
Result string: fulfilled
